Biological target: human enteropeptidase (Homo sapiens, UniProt P98073)
Construct: purchased ITSI-Biosciences, LLC #REN-260
Sequence (P98073 whole entry): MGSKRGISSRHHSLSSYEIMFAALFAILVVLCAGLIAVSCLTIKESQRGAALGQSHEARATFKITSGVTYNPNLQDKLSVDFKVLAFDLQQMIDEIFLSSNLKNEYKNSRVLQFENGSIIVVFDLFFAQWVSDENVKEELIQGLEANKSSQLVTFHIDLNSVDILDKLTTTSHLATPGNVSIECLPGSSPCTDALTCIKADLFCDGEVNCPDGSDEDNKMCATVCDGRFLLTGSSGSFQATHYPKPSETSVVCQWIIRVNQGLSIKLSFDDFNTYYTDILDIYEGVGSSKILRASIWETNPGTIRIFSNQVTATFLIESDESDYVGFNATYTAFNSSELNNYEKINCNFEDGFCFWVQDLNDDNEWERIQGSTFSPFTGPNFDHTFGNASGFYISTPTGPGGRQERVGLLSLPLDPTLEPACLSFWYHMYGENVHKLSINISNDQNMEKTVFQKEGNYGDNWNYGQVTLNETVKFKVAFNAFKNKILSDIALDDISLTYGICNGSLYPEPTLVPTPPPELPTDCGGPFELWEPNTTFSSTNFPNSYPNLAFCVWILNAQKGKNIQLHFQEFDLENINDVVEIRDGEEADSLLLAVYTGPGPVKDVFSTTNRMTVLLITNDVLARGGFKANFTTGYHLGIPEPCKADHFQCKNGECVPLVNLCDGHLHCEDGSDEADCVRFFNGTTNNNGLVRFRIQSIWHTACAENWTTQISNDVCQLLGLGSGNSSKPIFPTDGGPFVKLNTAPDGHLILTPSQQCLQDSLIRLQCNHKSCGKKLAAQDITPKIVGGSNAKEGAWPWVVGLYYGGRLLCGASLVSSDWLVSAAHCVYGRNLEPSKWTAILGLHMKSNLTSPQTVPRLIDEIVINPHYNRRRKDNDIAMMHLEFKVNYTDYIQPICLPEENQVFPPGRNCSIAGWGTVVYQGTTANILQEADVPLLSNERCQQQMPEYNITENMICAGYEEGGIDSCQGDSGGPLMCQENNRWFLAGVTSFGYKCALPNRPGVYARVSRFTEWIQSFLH
Experiment: Human enteropeptidase enzyme assay
Type: biochemical
Details: 6 min incubation of enzyme, substrate and compound at room temperature; 95% confidence intervals in parentheses; read-out: Human enteropeptidase IC50(initial)
measured metric: IC50 (µM)

>>> experimental_result("N=C(N)Nc1ccc(C(=O)Oc2ccc3c(c2)OC[C@@H]3CC(=O)N[C@@H](CC(=O)O)C(=O)O)cc1 [(R)-5b]")
0.084
>>> experimental_result("N=C(N)Nc1ccc(C(=O)Oc2cccc(C(=O)N[C@@H](CC(=O)O)C(=O)O)c2)cc1.O=C(O)C(F)(F)F")
0.013
>>> experimental_result("N=C(N)Nc1ccc(C(=O)Oc2ccc(CC(=O)N[C@@H](CC(N)=O)C(=O)O)cc2)cc1")
0.31
>>> experimental_result("Cc1cc(NC(=N)N)ccc1C(=O)Oc1ccc(CC(=O)N[C@@H](CC(=O)O)C(=O)O)cc1")
0.94
>>> experimental_result("N=C(N)Nc1ccc(C(=O)Oc2cccc(CC(=O)N[C@@H](CC(=O)O)C(=O)O)c2)cc1.O=C(O)C(F)(F)F")
0.032

[a] N=C(N)Nc1ccc(C(=O)Oc2ccc(CC(=O)N[C@@H](CC(=O)O)C(=O)O)cc2)c(F)c1
[b] N=C(N)Nc1ccc(C(=O)Oc2ccc(CC(=O)N[C@@H](CC(=O)O)C(=O)O)cc2)c(Cl)c1
### Prompt Which has the higher IC50, a or b ? Respond with the label that goes with your answer.
### Response b
(b: 0.057 µM, a: 0.0074 µM)

[1] N=C(N)Nc1ccc(C(=O)Oc2cccc(C3=NO[C@@](CC(=O)O)(C(=O)O)C3)c2)cc1
[2] N=C(N)Nc1ccc(C(=O)Oc2ccc(CC(=O)N[C@@H](CCC(=O)O)C(=O)O)cc2)cc1
[3] N=C(N)Nc1ccc(C(=O)Oc2ccc3c(c2)OC(CC(=O)N[C@@H](CC(=O)O)C(=O)O)C3)cc1 (stereo partly drawn)
### Prompt Rank descending by IC50. Field: ranking. Enter the labels in the order requested.
### Response 3, 2, 1
(3: 0.18 µM, 2: 0.12 µM, 1: 0.026 µM)
